Listing of entries alongside the reported log10 of IC50.
- assayed_target: lethal factor (LF) (Bacillus anthracis, UniProt P15917)
- Sequence (P15917 34-809 limits assumed): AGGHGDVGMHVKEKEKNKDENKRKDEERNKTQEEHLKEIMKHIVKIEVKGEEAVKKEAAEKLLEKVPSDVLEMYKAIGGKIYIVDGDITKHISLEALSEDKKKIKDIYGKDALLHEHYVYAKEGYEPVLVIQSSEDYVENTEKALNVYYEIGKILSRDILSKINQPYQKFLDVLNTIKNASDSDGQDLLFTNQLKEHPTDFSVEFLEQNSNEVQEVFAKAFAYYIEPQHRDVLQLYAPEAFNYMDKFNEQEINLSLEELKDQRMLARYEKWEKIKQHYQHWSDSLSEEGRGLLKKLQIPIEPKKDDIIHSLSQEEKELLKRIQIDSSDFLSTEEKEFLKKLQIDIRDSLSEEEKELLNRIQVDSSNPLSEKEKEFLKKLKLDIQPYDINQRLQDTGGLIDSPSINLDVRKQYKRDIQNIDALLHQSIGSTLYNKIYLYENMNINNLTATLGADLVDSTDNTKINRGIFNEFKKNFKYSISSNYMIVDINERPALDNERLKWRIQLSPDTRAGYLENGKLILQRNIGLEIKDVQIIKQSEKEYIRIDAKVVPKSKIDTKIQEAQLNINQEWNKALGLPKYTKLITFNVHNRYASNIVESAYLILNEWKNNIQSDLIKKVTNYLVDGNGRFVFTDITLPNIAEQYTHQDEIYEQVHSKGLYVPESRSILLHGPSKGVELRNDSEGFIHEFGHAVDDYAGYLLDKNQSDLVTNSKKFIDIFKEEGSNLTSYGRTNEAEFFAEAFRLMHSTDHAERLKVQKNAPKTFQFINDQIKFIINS
- test_method_notes: biochemical
- Assay type: biochemical
- setup_conditions: pH 7.4; read-out: LF IC50
readout: log10 of IC50 (log10 of the value in µM)

molecule | assayed_target | log10 of IC50
O=C(O)CN1C(=O)/C(=C/c2cccc3c2oc2ccccc23)SC1=S | lethal factor (LF) (Bacillus anthracis, UniProt P15917) | 0.47
O=C(O)CN1C(=O)/C(=C/c2ccc(-c3ccc([N+](=O)[O-])cc3Cl)o2)SC1=S | lethal factor (LF) (Bacillus anthracis, UniProt P15917) | 0.32
O=C(O)CN1C(=O)/C(=C/c2cccc(Br)n2)SC1=S | lethal factor (LF) (Bacillus anthracis, UniProt P15917) | 1.76
O=C(O)CN1C(=O)/C(=C/c2cn(-c3ccccc3)nc2-c2ccccc2)SC1=S | lethal factor (LF) (Bacillus anthracis, UniProt P15917) | 0.80
O=C(O)CN1C(=O)/C(=C/c2cn(-c3ccc(F)cc3)nc2-c2ccc(F)cc2)SC1=S | lethal factor (LF) (Bacillus anthracis, UniProt P15917) | 0.63
O=C1/C(=C/c2ccc(-c3cccc(Cl)c3)o2)SC(=S)N1CCS(=O)(=O)O | lethal factor (LF) (Bacillus anthracis, UniProt P15917) | 0.23
O=C1/C(=C/c2cn(-c3ccccc3)nc2-c2ccc(S(=O)(=O)N3CCCCC3)cc2)SC(=S)N1CCS(=O)(=O)O | lethal factor (LF) (Bacillus anthracis, UniProt P15917) | 0.32
O=C1/C(=C/c2cn(-c3ccccc3)nc2-c2ccc(Cl)cc2)SC(=S)N1CCS(=O)(=O)O | lethal factor (LF) (Bacillus anthracis, UniProt P15917) | 0.56
O=C1/C(=C/c2ccc(-c3cccc([N+](=O)[O-])c3)o2)SC(=S)N1CCS(=O)(=O)O | lethal factor (LF) (Bacillus anthracis, UniProt P15917) | 0.04
COc1ccc(-c2nn(-c3ccccc3)cc2/C=C2\SC(=S)N(CCS(=O)(=O)O)C2=O)cc1 | lethal factor (LF) (Bacillus anthracis, UniProt P15917) | 0.31
O=C(O)CN1C(=O)/C(=C/c2cn(-c3ccc(Br)cc3)nc2-c2ccc(Br)cc2)SC1=S | lethal factor (LF) (Bacillus anthracis, UniProt P15917) | 0.53
O=C1/C(=C/c2cn(-c3ccccc3)nc2-c2ccc(OCc3ccc(Cl)cc3)cc2)SC(=S)N1CCS(=O)(=O)O | lethal factor (LF) (Bacillus anthracis, UniProt P15917) | 0.39
O=C(O)CN1C(=O)/C(=C/c2cccc(-n3cccn3)c2)SC1=S | lethal factor (LF) (Bacillus anthracis, UniProt P15917) | 1.45
O=C(O)CN1C(=O)/C(=C/c2cccc(N3CCCC3)c2)SC1=S | lethal factor (LF) (Bacillus anthracis, UniProt P15917) | 1.45
O=C(O)CN1C(=O)/C(=C/c2cn(-c3ccc(Cl)cc3)nc2-c2ccc(Cl)cc2)SC1=S | lethal factor (LF) (Bacillus anthracis, UniProt P15917) | 0.47
O=C(O)CCC(C(=O)O)N1C(=O)/C(=C/c2ccc(-c3ccc([N+](=O)[O-])cc3)o2)SC1=S (stereo not shown) | lethal factor (LF) (Bacillus anthracis, UniProt P15917) | 0.69
O=C(O)CC(C(=O)O)N1C(=O)/C(=C/c2ccc(-c3ccc(Br)cc3)o2)SC1=S (stereo not shown) | lethal factor (LF) (Bacillus anthracis, UniProt P15917) | 0.60
Cc1nc(-c2ccccc2)c(/C=C2\SC(=S)N(CC(=O)O)C2=O)s1 | lethal factor (LF) (Bacillus anthracis, UniProt P15917) | 1.61
CCOc1ccc(-c2nn(-c3ccccc3)cc2/C=C2\SC(=S)N(CC(=O)O)C2=O)c(C)c1 | lethal factor (LF) (Bacillus anthracis, UniProt P15917) | 0.69
O=C(O)CN1C(=O)/C(=C/c2cc3nccnc3s2)SC1=S | lethal factor (LF) (Bacillus anthracis, UniProt P15917) | 1.40
Cc1ccc2cc(/C=C3\SC(=S)N(CC(=O)O)C3=O)ccc2n1 | lethal factor (LF) (Bacillus anthracis, UniProt P15917) | 0.72
O=C(O)CN1C(=O)/C(=C/c2c[nH]c3ccc(Br)cc23)SC1=S | lethal factor (LF) (Bacillus anthracis, UniProt P15917) | 0.85
